The reported measurements were obtained from patent US7030138B2.

Target: bovine trypsin (Bos taurus)
Construct: purchased Sigma
Sequence (P00760 24-246): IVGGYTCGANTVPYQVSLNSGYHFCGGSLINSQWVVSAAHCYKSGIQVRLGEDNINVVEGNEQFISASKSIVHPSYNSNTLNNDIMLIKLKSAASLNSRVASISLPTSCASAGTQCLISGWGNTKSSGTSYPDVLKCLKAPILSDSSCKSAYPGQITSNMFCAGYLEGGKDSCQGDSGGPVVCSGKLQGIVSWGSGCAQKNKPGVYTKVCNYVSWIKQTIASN
Assay: Determination of anti-trypsin activity (S-2222 coloring substrate, absorbance at 405 nm)
Assay type: biochemical
Details: bovine trypsin 0.25 μg-protein/ml, S-2222 0.4 mM, Tris buffer pH 8.4, room temperature, 5 minutes; read-out: Inhibitory Action against Trypsin Activity (IC50 (nM))
Counter-ions that a name gives are not always drawn.
Lab note: compare IC50 with 2000 nM, writing met if less and not met if equal or more.

Look over these answered cases.
1) N=C(N)c1cccc(/C=C/CN(c2ccc(OC3CCN(C4=NCCC4)CC3)cc2)S(=O)(=O)CC(=O)O)c1 [Example 60, dihydrochloride] = not met
2) Cc1cc(N(C/C=C/c2cccc(C(=N)N)c2)S(=O)(=O)CC(=O)O)ccc1OC1CCN(C2=NCCC2)CC1 [Example 66, dihydrochloride] = not met
3) CCOC(=O)CS(=O)(=O)N(C/C=C/c1cccc(C(=N)N)c1)c1ccc(OC2CCN(C3=NCCC3)CC2)c(C)c1 [Example 65, dihydrochloride] = not met
4) CCOC(=O)CS(=O)(=O)N(C/C=C/c1cccc(C(=N)N)c1)c1ccc(OC2CCN(C=N)CC2)c(Cl)c1 [Example 47, dihydrochloride] = met
5) N=CN1CCC(Oc2ccc(N(C/C=C/c3cccc(C(=N)N)c3)S(=O)(=O)CC(=O)O)cc2Cl)CC1 [Example 48, dihydrochloride] = met

Does the reported IC50 of the following molecule sit strictly below 2000 nM? CCOC(=O)CS(=O)(=O)N(C/C=C/c1cccc(C(=N)N)c1)c1ccc(OC2CCN(C(=N)CC)CC2)c(Cl)c1 [Example 49, dihydrochloride]
met

Answer whether the molecule CCOC(=O)CS(=O)(=O)N(C/C=C/c1cccc(C(=N)N)c1)c1ccc(OC2CCN(c3ccncc3)CC2)c(Cl)c1 [Example 27, dihydrochloride] has IC50 strictly less than 2000 nM
met

Strictly below 2000 nM: is that where IC50 of CCOC(=O)CS(=O)(=O)N(C/C=C/c1cccc(C(=N)N)c1)c1ccc(OC2CCN(C3=NCCC3)CC2)c(Cl)c1 [Example 53, dihydrochloride] sits?
not met

Is it true that IC50 reported for N=C(N)c1cccc(/C=C/CN(c2ccc(OC3CCN(c4ccncc4)CC3)c(Cl)c2)S(=O)(=O)CC(=O)O)c1 [Example 28, dihydrochloride] is less than 2000 nM?
met

is_below(IC50, 2000 nM) for N=C(N)c1cccc(/C=C/CN(c2ccc(OC3CCN(C4=NCCC4)CC3)c(C(F)(F)F)c2)S(=O)(=O)CC(=O)O)c1 [Example 78, dihydrochloride] ?
not met

Is IC50 strictly under 2000 nM for the entry CCOC(=O)CS(=O)(=O)N(C/C=C/c1cccc(C(=N)N)c1)c1ccc(OC2CCN(C3=NCCC3)CC2)c(C(F)(F)F)c1 [Example 77, dihydrochloride] ?
not met

Does CCC(=N)N1CCC(Oc2ccc(N(C/C=C/c3cccc(C(=N)N)c3)S(=O)(=O)CC(=O)O)cc2Cl)CC1 [Example 50, dihydrochloride] have IC50 strictly under 2000 nM?
met

API: query returns whether the molecule falls strictly under 2000 nM in IC50. Query: N=C(N)c1cccc(/C=C/CN(c2ccc(OC3CCN4CCCC4C3)c(Cl)c2)S(=O)(=O)CC(=O)O)c1 (centres unmarked) [Example 42, dihydrochloride]
not met
